Experiment: Pharmacokinetic analysis of plasma AT7519 after first 1-h intravenous infusion
Assay type: in vivo, human
Settings: human, plasma, iv
RECORDED METRIC: half-life
Give your result as the value with the unit written after it.

Give the reported half-life for this molecule. O=C(NC1CCNCC1)c1n[nH]cc1NC(=O)c1c(Cl)cccc1Cl [AT7519] 786 min

----------
Test: Pharmacokinetic analysis of plasma AT7519 after first 1-h intravenous infusion
Assay type: in vivo, human
Details: human, plasma, intravenous, 27 mg
RECORDED METRIC: Cmax (ng/mL)
Numbers only, in ng/mL.

Consider the molecule `O=C(NC1CCNCC1)c1n[nH]cc1NC(=O)c1c(Cl)cccc1Cl` and give its recorded Cmax. 591
